STUDY_CONDITIONS: pH 6.8
MEASURED_PARAMETER: aqueous solubility (µg/mL)

Examples from the recorded data:
>  <STRUCTURE>
CCc1csc(NC(=O)c2ccc3c(c2)nc(C)n3C)n1

>  <UOM>
µg/mL

>  <aqueous solubility>
39.8

$$$$
>  <STRUCTURE>
O=C(NCc1cc(F)cc(F)c1)c1ccccn1

>  <UOM>
µg/mL

>  <aqueous solubility>
43.4

$$$$
>  <STRUCTURE>
COc1ccc(-c2nnc(NC(=O)c3ccc4ccccc4c3)o2)cc1OC

>  <UOM>
µg/mL

>  <aqueous solubility>
0.27

$$$$
>  <STRUCTURE>
CNC(=O)c1ccc(N2CCCC2)nc1

>  <UOM>
µg/mL

>  <aqueous solubility>
34.7

$$$$

[A] O=C(O)c1cnn(-c2ccncc2)c1C(F)F
[B] Cc1cc(-c2ccc(N)nc2)cc(C2CCN(C(=O)CCCc3ccc(F)c(C)c3)CC2)n1
Q: Sorting ascending by aqueous solubility, which comes first: A or B ? Give the label under which the chosen entry appears.
Result: B
(B: 8.44 µg/mL, A: 31.9 µg/mL)

[P] Fc1ccc2oc(Cn3nnc(-c4ccsc4)n3)nc2c1
[Q] Cc1cc(C(=O)Nc2ccc(C)c(C)c2)n(-c2ccccc2)n1
[R] COc1ccc(-c2[nH]c3ncccc3c2CN(C)CCOc2ccccc2OC)cc1
[S] Cc1nn(C)c2nc(N3CCN(C)C[C@@H]3c3ccccc3)sc12
Q: Order the records, beginning with the lowest aqueous solubility and ending with the highest. Field: ranking. Enter the labels in the order requested.
Result: R, Q, P, S

[I] O=C1Nc2ccccc2O[C@H]2C[C@@H]1N(CC1CC1)C2
[II] Cc1cccc(NC(=O)c2cccnc2N2CCCCC2)n1
[III] COCCOc1ccc(N2CCN(CCn3ncc4c3nc(N)n3nc(-c5ccco5)nc43)CC2)cc1
[IV] Cc1ccc(OCc2nc3cc(N)ccc3[nH]2)cc1
Q: Please put the entries in order of rising aqueous solubility. Ranked list of labels, please, in the requested order.
Result: III, IV, II, I

[P] Cc1cc(=O)n(C)c2cc(N3C(=O)CC[C@H](NS(=O)(=O)CC(C)C)[C@H]3c3ccc(Cl)cc3)ccc12
[Q] CC(C)c1nc(CCn2ccnc2-c2ccoc2)cs1
Q: Please choose the item with the lower aqueous solubility value from this pair: P and Q Your answer should be the label of the entry you select.
Result: Q

[I] O=C(CCN1C(=O)CCC1=O)Nc1cccc2ncccc12
[II] O=C(CN1CCSC1=O)Nc1ccccc1F
[III] O=C(Cc1ccc2c(c1)CCCC2)Nc1ccc(-n2cnnn2)cc1
Q: # ascending order, key=aqueous solubility List the labels, following the order given in the request.
Result: III, II, I

[1] CN(C)CCN(Cc1ccccc1)Cc1ccccc1O
[2] CCCn1ncc2[nH]c(C3CCCCC3)nc21
Q: Just curious, which one has the larger aqueous solubility reading, 1 or 2 ? Lab log: write the label of the selected item as the result.
Result: 1
(1: 41.9 µg/mL, 2: 22.4 µg/mL)
